Molecular target: Ubiquitin carboxyl-terminal hydrolase 1 (Homo sapiens) (UniProt O94782)
Sequence (O94782 whole entry, looked up): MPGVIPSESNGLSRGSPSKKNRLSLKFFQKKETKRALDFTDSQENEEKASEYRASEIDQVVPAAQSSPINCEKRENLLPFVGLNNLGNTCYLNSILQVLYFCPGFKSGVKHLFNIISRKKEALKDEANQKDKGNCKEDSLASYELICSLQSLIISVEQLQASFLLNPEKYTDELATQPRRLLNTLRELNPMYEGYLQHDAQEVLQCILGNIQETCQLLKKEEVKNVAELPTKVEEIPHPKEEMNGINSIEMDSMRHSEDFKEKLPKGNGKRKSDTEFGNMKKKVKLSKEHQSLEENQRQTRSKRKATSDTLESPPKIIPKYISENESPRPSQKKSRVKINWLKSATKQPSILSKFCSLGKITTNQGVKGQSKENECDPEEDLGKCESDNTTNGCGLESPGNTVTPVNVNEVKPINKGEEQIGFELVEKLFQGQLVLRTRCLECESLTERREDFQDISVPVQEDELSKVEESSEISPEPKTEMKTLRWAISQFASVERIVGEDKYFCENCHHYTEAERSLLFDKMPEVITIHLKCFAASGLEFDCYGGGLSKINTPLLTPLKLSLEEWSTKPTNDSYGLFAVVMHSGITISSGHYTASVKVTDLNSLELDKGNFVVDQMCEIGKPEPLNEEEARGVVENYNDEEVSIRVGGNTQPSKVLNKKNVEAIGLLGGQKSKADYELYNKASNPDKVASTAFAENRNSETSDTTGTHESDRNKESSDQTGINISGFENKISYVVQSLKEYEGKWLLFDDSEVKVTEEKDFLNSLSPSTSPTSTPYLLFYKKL
Assay: Inhibitors of USP1/UAF1: Pilot qHTS (AID 504865);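 note: rhodamine fluorescence freed from ubiquitin-rhodamine substrate followed over time; top concentration of the series differs between compounds; nearly all actives have a fitted effect of over 35% in size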
Details: purified USP1/UAF1, Ub-rhodamine cleavage fluorescence; series mostly up to 114 µM
Records with an inconclusive call do not appear. Calls of active or inactive are those of the source. Calls come from the whole dose curve; as a rule, active = well fitted inhibition curve with a large enough effect; inconclusive = small, poorly fitted or top-dose-only effect; inactive = flat fitted curve, though single readings scatter.
ATTRIBUTE MEASURED: outcome

Below, each entry is followed by its recorded outcome result.
O=c1cc(-c2ccccc2)oc2cccc(O)c12    inactive
Nc1ncnc2c1[nH]c(=O)n2C1OC(CO)C(O)C1O (stereo not given)    inactive
CC(=O)OC1CC(OC(C)=O)[C@]2(C)C(CC(OC(C)=O)[C@]3(C)C2CC[C@@]2(C)C(c4ccoc4)OC(=O)C4O[C@]432)C1(C)C (stereo not given in full)    inactive
CC(=O)OC1C[C@]2(C)C(C(C)=O)CCC2C2CCC3=CC(=O)CC[C@@]3(C)C12 (stereo not given in full)    inactive
COc1cc(OC)c2c(c1Cl)OC1(C2=O)C(O)=CC(=O)CC1C (stereo not given)    inactive
CC(=O)/C(=C\c1ccccc1)CC(=O)O    inactive
Cc1cc(O)cc(O)c1C(=O)O    inactive
CC(=O)Oc1cc(-c2coc3cc(OC(C)=O)c(OC(C)=O)c(OC(C)=O)c3c2=O)cc(OC(C)=O)c1OC(C)=O    inactive

Record outcome per entry; entries follow.
1. CC(=O)OCC1OC(n2cnc3c(Cl)nc(Cl)nc32)C(OC(C)=O)C1OC(C)=O (stereo not given)
2. CS(=O)(=O)CCCCN=C=S

inactive
inactive
